test: growth inhibitors of anaerobic choline-fed gram-negatives, minimal medium, absorbance (AID 1963822); settings: Gram-negative bacterium anaerobic choline minimal medium, measured here: choline growth z-score, timepoint 1, stronger effect = lower value
Screen size: about 55,000 compounds; about 90 (0.2%) were called active. Shown is part of a subset that was picked to be rich in actives.
Binarize z-score at 0.3; below is T, at or above is F.

Examples with answers:
compound=COc1ccc2cc3c(nc2c1)N(C(=O)c1ccc(OC)c(OC)c1)CC3 assignedcategory=T
compound=O=S(=O)(c1ccccc1F)N1CCN(c2ncnc3c2nnn3-c2ccccc2)CC1 assignedcategory=F
compound="O=C(NC1CCCc2ccccc21)c1ccc(-c2cc(N3CCOCC3)ncn2)cc1 (configuration not stated)" assignedcategory=T

QUERY: Dear reviewer, please state whether COC(=O)Cn1nc2c(-c3nc(-c4ccc(Cl)cc4)no3)cccn2c1=O has z-score strictly beneath 0.3.
RESULT: T

QUERY: Record O=C(NC1CC1)c1snc(-c2ccccn2)c1NC(=O)C1CC1 : is its z-score strictly below 0.3?
RESULT: F

QUERY: Does O=C(O)C1Nc2ccc(Cl)cc2C2C=CCC12 (configuration not stated) have z-score strictly under 0.3?
RESULT: F

QUERY: Is the reported z-score for CS(=O)(=O)NC1CCN(C(=O)C2CCCC2)C1 (configuration not stated) strictly below 0.3?
RESULT: F

QUERY: In plain terms, does CCOc1ccc(N2CCCCn3c2nc2c3c(=O)n(CCC(C)C)c(=O)n2C)cc1 come in under 0.3 for z-score?
RESULT: T

QUERY: In the record for Cc1ccc(C(C)C)c(OC(C)C(=O)Nc2onc3c2CCCC3)c1 (configuration not stated) , is z-score less than 0.3?
RESULT: T
